# ASSAY TARGET: Cyclin A (Homo sapiens, UniProt P20248)
# Sequence (P20248 whole entry): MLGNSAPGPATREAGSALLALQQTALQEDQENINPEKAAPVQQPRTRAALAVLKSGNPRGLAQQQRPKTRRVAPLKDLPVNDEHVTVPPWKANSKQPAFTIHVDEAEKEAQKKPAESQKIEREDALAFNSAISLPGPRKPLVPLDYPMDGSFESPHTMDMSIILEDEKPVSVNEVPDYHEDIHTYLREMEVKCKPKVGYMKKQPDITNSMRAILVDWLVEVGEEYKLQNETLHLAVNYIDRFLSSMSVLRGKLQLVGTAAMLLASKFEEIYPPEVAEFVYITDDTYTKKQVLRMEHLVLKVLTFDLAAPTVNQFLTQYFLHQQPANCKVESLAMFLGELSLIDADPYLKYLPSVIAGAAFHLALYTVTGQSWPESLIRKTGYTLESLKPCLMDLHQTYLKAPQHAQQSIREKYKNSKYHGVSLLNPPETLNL
# EXPERIMENTAL DETAILS: Cyclin A binding assay, immobilised biotinyl-Ahx-[…]NH2
# CONDITIONS USED: Phe159 substitutions; relative to H-His-Ala-Lys-Arg-Arg-Leu-Ile-Phe-NH2 (=1)
Square brackets hold non-standard residues; d marks the D form. Ends that are not written are not given here. Phe(4-F) = N[C@@H](Cc1ccc(F)cc1)C(=O)O; 1Nal = N[C@@H](Cc1cccc2ccccc12)C(=O)O; Tic = O=C(O)[C@@H]1Cc2ccccc2CN1
READOUT TYPE: Relative activity Cyclin A Binding

Here's what some known entries look like.
substance="H-His-Ala-Lys-Arg-Arg-Leu-Ile-1Nap-NH2 (H-HAKRRLI[1Nal]-NH2; SMILES CC[C@H](C)[C@H](NC(=O)[C@H](CC(C)C)NC(=O)[C@H](CCCNC(=N)N)NC(=O)[C@H](CCCNC(=N)N)NC(=O)[C@H](CCCCN)NC(=O)[C@H](C)NC(=O)[C@@H](N)Cc1c[nH]cn1)C(=O)N[C@@H](Cc1cccc2ccccc12)C(N)=O)" readout_type="Relative activity Cyclin A Binding" measured_result=<0.1
substance=HAKRRLIW-NH2 readout_type="Relative activity Cyclin A Binding" measured_result=0.1
substance=HAKRRLIK-NH2 readout_type="Relative activity Cyclin A Binding" measured_result=<0.1
substance="H-His-Ala-Lys-Arg-Arg-Leu-Ile-Tic-NH2 (H-HAKRRLI[Tic]-NH2; SMILES CC[C@H](C)[C@H](NC(=O)[C@H](CC(C)C)NC(=O)[C@H](CCCNC(=N)N)NC(=O)[C@H](CCCNC(=N)N)NC(=O)[C@H](CCCCN)NC(=O)[C@H](C)NC(=O)[C@@H](N)Cc1c[nH]cn1)C(=O)N1Cc2ccccc2C[C@H]1C(N)=O)" readout_type="Relative activity Cyclin A Binding" measured_result=<0.1
substance="H-His-Ala-Lys-Arg-Arg-Leu-Ile-pFPhe-NH2 (H-HAKRRLI[Phe(4-F)]-NH2; SMILES CC[C@H](C)[C@H](NC(=O)[C@H](CC(C)C)NC(=O)[C@H](CCCNC(=N)N)NC(=O)[C@H](CCCNC(=N)N)NC(=O)[C@H](CCCCN)NC(=O)[C@H](C)NC(=O)[C@@H](N)Cc1c[nH]cn1)C(=O)N[C@@H](Cc1ccc(F)cc1)C(N)=O)" readout_type="Relative activity Cyclin A Binding" measured_result=5

# context switch: different substance, same Relative activity Cyclin A Binding
Relative activity Cyclin A Binding for HAKRRLIL-NH2 is <0.1
